System: T1, human IL-33 (R&D Systems, #3625-IL-010/CF) (human) (UniProt O95760)
T1 sequence (looked up): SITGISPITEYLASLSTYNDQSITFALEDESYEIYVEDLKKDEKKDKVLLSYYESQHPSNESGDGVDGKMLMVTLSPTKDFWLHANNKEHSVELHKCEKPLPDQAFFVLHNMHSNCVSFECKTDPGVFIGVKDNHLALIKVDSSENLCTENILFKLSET
Experiment: SPR Biacore T200, 37 C
// values below are reported kon
Quick reminder: number only, in M⁻¹ s⁻¹, skip the unit.

Solved entries (count: 2):
{"columns": ["Binder", "kon, M⁻¹ s⁻¹"],
 "data": [
  ["H4H9676P (antibody, from another filing, IgG4, V domains shown) VH: EVQLVESGGGLVQPGGSLRLSCSASGFTFSSYAMNWVRQAPGKGLEWVTAISGSGGGTYYADSVKGRFTISRDNSKNSLFLQLNSLRAEDTAVYYCAKQTYTSSWYGGFDIWGQGTMVTVSS VL: DIQMTQSPSSVSASVGDRVTITCRASQGFSSWLAWYQQIPGKAPKLLIYAASRLQSGVPSRFRGSGSGTDFTLTISSLQPEDFATYYCQQANSFPLTFGGGTKVEIK", "3.47e+06"],
  ["H4H9667P (antibody, from another filing, IgG4, V domains shown) VH: EVQLVESGGGLVQPGGSLRLSCAASGFTFSTYSMHWVRQAPGKGLEYVSTINNNGDTTYYADSVKGRFTISRDNSKNTLYLQLGSLRPEDMAVYYCARQTYTSSWYGGFDSWGQGTLVTVSS VL: DIQMTQSPSSVSASVGDRVTITCRASQGITSWLAWYQQKPGKAPKLLIYAASNLQSGVPSRFSGSGSGTDFTLTITSLQPEDFATYYCQQANSLPFTFGPGTKVDIK", "1.21e+06"]
]}

Form field: reported kon of H4H9671P (antibody, from another filing, IgG4, V domains shown) VH: EVQLVESGGGLVQPGGSLRLSCAASGFTLRSYFMTWVRQVPGKGLEGVSAISGISGGTYYTDSVKGRFTISRDNSKNTLFLQMNSLRAEDTAVYFCARTVYSSSYYGGFQHWGQGTLVTVSS VL: DIQMTQSPSSVSVSVGDRVTITCRASQGISSWLAWYQQKPGKAPKLLIYVASSLQSGVPSRFSGSGSGTDFTLTISSLQPEDFATYYCQQTNSFPLTFGGGTKVEIK 3.68e+06

Form field: reported kon of H4H9663P (antibody, from another filing, IgG4, V domains shown) VH: QVQLVQSGAEVKKPGASVKVSCKASGYTFTGHYMYWMRQAPGQGLEWMGWINPNSGGTNYAQKFQDRVTMTRDTSISTAYMELSRLRSDDTAVYYCARGRYGSSWYGGFEYWGQGTLVTVSS VL: DIQMTQSPSSVSASVGDRVTITCRASQGITSWLAWYQQKPGKAPNLLIYAAASLQSGVPSRFSGSGSGTDFTLTISSLQPEDFTTYYCQQAYSLPLTFGGGTKVEIK 3.11e+06

Reference source for all entries: patent US20190092852A1
